assay: Solubility; assay type: physicochemical; conditions: organic solvent or mixture; soluble in dimethylsulfoxide, pyridine, and 0.1 N sodium hydroxide; read-out: solubility
attribute-measured: solubility

Complete the entry with solubility for O=C(Nc1c(O)cccc1-c1nc2c(C(=O)O)cccc2o1)c1ncccc1O [A-33853]
≥ 5000 µg/mL

* * *

experiment: physchem; conditions: 66% dimethylformamide in water, pH 4.7, pKa
attribute-measured: pKa
Enter the number alone.

Complete the entry with pKa for "CC(=O)Oc1cccnc1C(=O)N(C(C)=O)c1c(OC(C)=O)cccc1-c1nc2c(C(=O)O)cccc2o1"
6.85

* * *

test: physchem; conditions: 66% dimethylformamide in water, pH 5, pKa (second titratable group)
attribute-measured: pKa

Complete the entry with pKa for "O=C(Nc1c(O)cccc1-c1nc2c(C(=O)O)cccc2o1)c1ncccc1O"
~10
